These data points were gathered from the supplement of paper PMC10567573.

B1: TOR1AIP2 (parent)
chain: SPGHSSAGQEGEDTLRRRLLAPEA

Variants of: B1
assay notes: protein stability index of a GFP-peptide fusion (GPS, HEK-293T) (PSI 1-6); higher = more stable;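 further: lentivirally expressed fusions sorted by FACS into six bins by GFP to DsRed ratio, PSI derived from sequencing read proportions per bin multiplied by bin number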
experimental setup: c terminus: a fixed tail appended
readout kind: protein stability index
Keep it simple and answer with nothing but the number.

Below are worked cases with known answers.
SPGYSSAGQEGEDTLRRRLLAPEA	3.84
SPGHSSAGQEGEDTLRRRLLAPAA	4.71
SPGHVSAGQEGEDTLRRRLLAPEA	4.3
SPGHSSAGGEGEDTLRRRLLAPEA	2.94

Item under review: "SPSHSSAGQEGEDTLRRRLLAPEA" . Reported protein stability index?
4.02

Can you handle "SPGHSSAGQEGEDTYRRRLLAPEA" next?
4.89

Record: "SPGHGSAGQEGEDTLRRRLLAPEA"
4.11

Also "SMGHSSAGQEGEDTLRRRLLAPEA" ?
3.75

Query "SPGHSSAGQEGFDTLRRRLLAPEA" next
3.1
